- experimentNotes: in vitro
- studyConditions: human, Calu-3 uninfected cytotoxicity CC50 GeoMean (µM), geometric mean of replicates
Where a name gives a salt, the structure may show the parent alone.

molecule | CC50 at 48 h
O=C(Nc1ccc(Cl)c(S(=O)(=O)N2CCNCC2)c1O)Nc1cccc(F)c1Cl [Elubrixin tosylate] | > 29.6 µM

----------
- experimentNotes: Uninfected HeLa-ACE2 24 h live/dead cytotoxicity counter screen
- Format: cell-based, human
- studyConditions: human, uninfected HeLa-ACE2 cells; read-out: HeLa-ACE2 uninfected cytotoxicity CC50 GeoMean
Residues, ends and D or L forms follow the SMILES beside them. *: point of attachment. Cbz = O=C(OCc1ccccc1)*; CHN2 = [N-]=[N+]=C*
The reader will find reported CC50 at 24 h values listed item by item below.
reportedMetric: CC50 at 24 h (nM)

molecule | resultModifier | reading
C[C@H]1O[C@@H](O[C@H]2[C@@H](O)C[C@H](O[C@H]3[C@@H](O)C[C@H](O[C@H]4CC[C@@]5(C)[C@H](CC[C@@H]6[C@@H]5C[C@@H](O)[C@]5(C)[C@@H](C7=CC(=O)OC7)CC[C@]65O)C4)O[C@@H]3C)O[C@@H]2C)C[C@H](O)[C@@H]1O [Digoxin] | = | 120
CCCCC1CCc2cc(O)cc3c(CCN4CCN(c5cc(C)ccn5)CC4)c(C)n1c23 (centres unmarked) [KC 11404] | > | 20900
COc1ccc(C[C@H](N)C(=O)N[C@H]2[C@@H](O)[C@H](n3cnc4c(N(C)C)ncnc43)O[C@@H]2CO)cc1 [Puromycin - cytotoxicity control] | = | 658
CC(C)CC(NC(=O)OCc1ccccc1)C(=O)NC(C(=O)NCC(=O)C=[N+]=[N-])C(C)C (stereo not drawn) [Z LVG CHN2] (Cbz-Leu-Val-Gly-CHN2; configuration not given here) | > | 39800
C=CC(=O)Nc1cc(Nc2nccc(-c3cn(C)c4ccccc34)n2)c(OC)cc1N(C)CCN(C)C [AZD-9291/Osimertinib] | > | 18100

----------
Items are presented alongside their recorded EC50.
- System: HeLa-ACE2 cells
- experimentNotes: Total cell count in the HeLa-ACE2 TOA (time of addition) assay
- Type: cell-based, human
- studyConditions: Homo sapiens, HeLa-ACE2; read-out: HeLa-ACE2 TOA cell count EC50 GeoMean

compound | EC50
CCN(CC)CCCNc1ccnc2cc(Cl)ccc12 | > 9.61 µM
Cc1c(-c2ccc(O)cc2)n(Cc2ccc(OCCN3CCCCCC3)cc2)c2ccc(O)cc12 [Bazedoxifene acetate] | > 9.59 µM
Cc1cccc(/C=N/Nc2cc(N3CCOCC3)n3nc(-c4ccncc4)cc3n2)c1 | > 9.59 µM
COc1cc(C[C@H]2c3cc(OC)c(OC)cc3CCN2C)c(Oc2cc3c(cc2OC)-c2c(OC)c(OC)cc4c2[C@H](C3)N(C)CC4)cc1OC | > 9.61 µM

----------
Attribute: Calu-3 uninfected cytotoxicity Sinf Average
- Tested on: Calu-3 cells
- experimentNotes: Uninfected Calu-3 48 h Cell-Titer Glo cytotoxicity counter screen
- studyConditions: curve-fit effect at infinite concentration, average
Counter-ions that a name gives are not always drawn.
reportedMetric: Calu-3 uninfected cytotoxicity Sinf Average (%)

molecule | reading
COc1ccc(C[C@H]2NC[C@H](O)[C@H]2OC(C)=O)cc1 | -66
Cn1c(C#N)ccc1-c1ccc2c(c1)C(C)(C)OC(=S)N2 | -100
N=C(N)c1ccc2cc(OC(=O)c3ccc(N=C(N)N)cc3)ccc2c1 [Nafamostat mesylate] | -100
CCCCCCCCCCCCCC(=O)O[C@@H]1[C@@H](C)[C@@]2(O)[C@@H](C=C(CO)C[C@]3(O)C(=O)C(C)=C[C@@H]23)[C@@H]2C(C)(C)[C@]12OC(C)=O [Phorbol 12-myristate 13-acetate] | -100
CO[C@H]1C[C@H](O[C@H]2CC[C@]3(C=O)[C@H]4CC[C@]5(C)[C@@H](C6=CC(=O)OC6)CC[C@]5(O)[C@@H]4CC[C@]3(O)C2)O[C@H](C)[C@H]1O | -40
COCc1c(C(C)C)nc(C(C)C)c(/C=C/[C@@H](O)C[C@@H](O)CC(=O)O)c1-c1ccc(F)cc1 [Cerivastatin sodium] | -100
CC(=O)O[C@H]1C[C@H](O[C@H]2[C@@H](O)C[C@H](O[C@H]3[C@@H](O)C[C@H](O[C@H]4CC[C@@]5(C)[C@H](CC[C@@H]6[C@@H]5C[C@@H](O)[C@]5(C)[C@@H](C7=CC(=O)OC7)CC[C@]65O)C4)O[C@@H]3C)O[C@@H]2C)O[C@H](C)[C@H]1O[C@@H]1O[C@H](CO)[C@@H](O)[C@H](O)[C@H]1O [Lanatoside C] | -28
CCN(CC)CCCNc1nccc2c(C)c3[nH]c4ccc(O)cc4c3c(C)c12 | -100
C=C(C)[C@]12C[C@@H](C)[C@@]34O[C@](Cc5ccccc5)(O[C@@H]1[C@@H]3C=C(COC(=O)Cc1ccc(O)c(OC)c1)C[C@]1(O)C(=O)C(C)=C[C@@H]41)O2 | -100

----------
Measured CC50 at 48 h by item
- experimentNotes: in vitro
- studyConditions: human, Calu-3 uninfected cytotoxicity CC50 GeoMean
Residues, ends and D or L forms follow the SMILES beside them. *: point of attachment. Cbz = O=C(OCc1ccccc1)*; CHN2 = [N-]=[N+]=C*
reportedMetric: CC50 at 48 h

molecule | reading
CC(C)CC(NC(=O)OCc1ccccc1)C(=O)NC(C(=O)NCC(=O)C=[N+]=[N-])C(C)C (stereo not drawn) [Z LVG CHN2] (Cbz-Leu-Val-Gly-CHN2; configuration not given here) | > 29.9 µM
COC(=O)C1=C(C)NC(C)=C(C(=O)OCCN2CCN(C(c3ccccc3)c3ccccc3)CC2)C1c1cccc([N+](=O)[O-])c1 (stereo not drawn) | > 29.9 µM
CCCCCCCC/C=C/CCCCCCCC(=O)OC[C@H]1O[C@@H](n2ccc(N)nc2=O)C(F)(F)[C@@H]1O [Gemcitabine elaidate] | > 29.9 µM

----------
- Tested on: SARS-CoV-2
- experimentNotes: microbe, parasite or virus in culture
- Format: cell-based
- studyConditions: Severe acute respiratory syndrome coronavirus 2, HeLa-ACE2, 24 h; read-out: HeLa-ACE2 CoV-2 Sinf Average
Counter-ions that a name gives are not always drawn.
Listed compounds paired with reported Emax
reportedMetric: Emax

compound | reportedMetric | reading
CCCCN(CCCC)CCC(O)c1cc2c(Cl)cc(Cl)cc2c2cc(C(F)(F)F)ccc12 (stereo not shown) [Halofantrine HCl] | Emax | 100%
COc1cc(C[C@H]2c3cc(OC)c(OC)cc3CCN2C)c(Oc2cc3c(cc2OC)-c2c(OC)c(OC)cc4c2[C@H](C3)N(C)CC4)cc1OC | Emax | 96%
Cc1ccc(NC(=O)c2ccc(CN3CCN(C)CC3)cc2)cc1Nc1nccc(-c2cccnc2)n1 [Imatinib mesylate] | Emax | 100%
CC(C)Oc1ccc(-c2nc(-c3cccc4c3CC[C@@H]4NCCO)no2)cc1C#N | Emax | 101%
Cc1c(-c2ccc(O)cc2)n(Cc2ccc(OCCN3CCCCCC3)cc2)c2ccc(O)cc12 [Bazedoxifene acetate] | Emax | 100%
Cc1cccc(/C=N/Nc2cc(N3CCOCC3)nc(OCCc3ccccn3)n2)c1 | Emax | 93%
Nc1nc(Nc2ccc3c(c2)CC[C@@H](N2CCCC2)CC3)nn1-c1cc2c(nn1)-c1ccccc1CCC2 | Emax | 98%
CCCCC1CCc2cc(O)cc3c(CCN4CCN(c5cc(C)ccn5)CC4)c(C)n1c23 (stereo not shown) | Emax | 100%
CCN(CC)CCCNc1ccnc2cc(Cl)ccc12 | Emax | 101%
Cc1cccc(/C=N/Nc2cc(N3CCOCC3)n3nc(-c4ccncc4)cc3n2)c1 | Emax | 96%
OC(CNCC(O)C1CCc2cc(F)ccc2O1)C1CCc2cc(F)ccc2O1 (stereo not shown) [Nebivolol HCl] | Emax | 99%
CCCCN1CC[C@H](c2ccc(N(C)C)cc2)[C@@H](COc2ccc(C(F)(F)F)cc2)C1 | Emax | 94%
CCN(CCO)CCCC(C)Nc1ccnc2cc(Cl)ccc12 (stereo not shown) [Hydroxychloroquine sulfate] | Emax | 100%

----------
- experimentNotes: in vitro
- studyConditions: human, Calu-3 uninfected cytotoxicity CC50 GeoMean (µM)

molecule | CC50 at 48 h
CSc1ccc(CN2CCCC(Nc3ccc4[nH]ncc4c3)C2)cc1 (stereo not drawn) | > 29.9 µM
CC(=O)N1C[C@H](O)C[C@H]1C(=O)N[C@@H](CCCNC(=N)N)C(=O)c1nc2ccccc2s1 | > 29.9 µM
N=C(N)c1ccc2cc(OC(=O)c3ccc(CNC(=O)CCCC(=O)O)o3)ccc2c1 | > 29.9 µM
N#Cc1cccc(C(C(=O)NCC(c2ccccc2)c2ccccc2)N(CCc2c[nH]cn2)C(=O)c2ccccc2C(=O)c2ccccc2)c1 (stereo not drawn) | > 29.9 µM
NC(N)=Nc1ncc(Cl)c2ccc(-c3cccc(C(=O)O)c3)cc12 | > 29.9 µM
O=c1[nH]c2ccc(C(F)(F)F)cc2c(-c2cc(Cl)ccc2O)c1CCO | > 29.9 µM
CC(=N)N1CCC(Oc2ccc(N(Cc3ccc4ccc(C(=N)N)cc4c3)S(=O)(=O)CC(=O)O)cc2)CC1 | > 29.9 µM
N=C(N)Nc1ccc(C(=O)Oc2ccc(S(N)(=O)=O)cc2)cc1 | > 29.9 µM
O[C@@H]1CO[C@H]2[C@@H]1OC[C@H]2Oc1nc2nc(-c3ccc(-c4ccccc4)cc3)c(Cl)cc2[nH]1 | > 29.9 µM
CC/C(=C(/c1ccc(/C=C/C(=O)O)cc1)c1ccc2[nH]ncc2c1)c1ccc(F)cc1Cl | > 23.8 µM
O=c1[nH]ccc2cc(OC3CCNCC3)ccc12 | > 29.9 µM
CN(C)C(C(=O)Nc1ccc2c(=O)[nH]ccc2c1)c1ccsc1 (stereo not drawn) | > 18.9 µM

# credit: paper PMC8175350
